Data origin: PubChem BioAssay (NCI)

# Test system: DMS 114 small cell lung
# method-notes: NCI tumour cell line growth inhibition, 48 h
measurement-kind: TGI

[[record]]
compound = "COc1ccc2c(c1)CC1NC2Cc2ccccc21 (stereo unspecified)"
observed_result = "> 100 µM"

[[record]]
compound = "CC[N+](CC)(CC)Cc1cn(S(=O)(=O)c2ccccc2)c2ccccc12"
observed_result = "> 100 µM"

[[record]]
compound = "CC1CC(C)C(=O)C(C(=O)CC2CC(=O)NC2=O)C1 (stereo unspecified)"
observed_result = "> 100 µM"

[[record]]
compound = "CO/C=C/c1cc2c(cc1C(OC)OC)OCO2"
observed_result = "> 100 µM"

[[record]]
compound = "Cn1cc(C(=O)/C(Cl)=C(\\Cl)C(=O)O)c2ccccc21"
observed_result = "> 100 µM"

[[record]]
compound = "O=C(CC1(O)C(=O)Nc2ccccc21)c1ccc(O)cc1O (stereo unspecified)"
observed_result = "> 100 µM"

[[record]]
compound = "CN(C)CCNc1c([N+](=O)[O-])cc2c3c(cccc13)C(=O)N(CCN(C)C)C2=O"
observed_result = "3.1 µM"

[[record]]
compound = "CCOC(=O)C1=C(C)C2C3C(=O)NC(=O)C3C1(C)C1C(=O)NC(=O)C21 (stereo unspecified)"
observed_result = "> 100 µM"

[[record]]
compound = "CN1CCC23c4ccccc4NC1C21CCN(C)C3Nc2ccccc21"
observed_result = "> 375 µM"

[[record]]
compound = "O=C1CC(c2ccccc2)NCN1 (stereo unspecified)"
observed_result = "> 100 µM"

[[record]]
compound = "CC(=O)C1=C(O)C2(O)C(=O)c3c(c(C)c4ccc(C)c(O)c4c3O)CC2C(N)C1=O (stereo unspecified)"
observed_result = "7.17 µM"

